For each record, write down the corresponding kon.
# Target entity: T1, Human IL-18Rα extracellular domain (human, UniProt Q13478 22-329, biotinylated (site not stated))
# T1 construct: also called IL-18 receptor
# T1 sequence: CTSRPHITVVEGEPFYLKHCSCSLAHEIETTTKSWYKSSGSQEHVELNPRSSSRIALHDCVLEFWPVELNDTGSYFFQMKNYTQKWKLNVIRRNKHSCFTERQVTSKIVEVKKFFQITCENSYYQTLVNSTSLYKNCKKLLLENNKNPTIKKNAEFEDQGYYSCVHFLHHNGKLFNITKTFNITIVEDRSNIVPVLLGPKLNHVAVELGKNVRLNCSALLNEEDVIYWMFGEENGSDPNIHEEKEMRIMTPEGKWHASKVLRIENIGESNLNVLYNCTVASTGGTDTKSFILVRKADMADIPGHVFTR
# Test method notes: SPR, Biacore 8K, 37 C, biotinylated target on SA chip, single-cycle kinetics
Give bare numbers, in M⁻¹ s⁻¹.

Need kon for each of these binders.
1. Human IL-18 S46C/V189C (ligand, Made in mammalian cells) YFGKLESKLCVIRNLNDQVLFIDQGNRPLFEDMTDSDSRDNAPRTIFIISMYKDSQPRGMAVTISVKSEKISTLSSENKIISFKEMNPPDNIKDTKSDIIFFQRSVPGHDNKMQFESSSYEGYFLASEKERDLFKLILKKEDELGDRSIMFTCQNED
2. Human IL-18 S101C/T109C (ligand, Made in mammalian cells) YFGKLESKLSVIRNLNDQVLFIDQGNRPLFEDMTDSDSRDNAPRTIFIISMYKDSQPRGMAVTICVKSEKISCLSSENKIISFKEMNPPDNIKDTKSDIIFFQRSVPGHDNKMQFESSSYEGYFLASEKERDLFKLILKKEDELGDRSIMFTVQNED
3. Human IL-18 I107C/N123C (ligand, Made in mammalian cells) YFGKLESKLSVIRNLNDQVLFIDQGNRPLFEDMTDSDSRDNAPRTIFIISMYKDSQPRGMAVTISVKSEKCSTLSSENKIISFKEMCPPDNIKDTKSDIIFFQRSVPGHDNKMQFESSSYEGYFLASEKERDLFKLILKKEDELGDRSIMFTVQNED

a:
1: 360000; 2: 280000; 3: 2.1e+06
